Provide the recorded inhibition at 0.1 µM for the entries that follow.
- SYSTEM_UNDER_TEST: human cloned dopamine D3 receptors (Homo sapiens, UniProt P35462)
- Construct: expressed in transfected cells; host or cells: CHO cells
- Sequence (P35462 whole entry): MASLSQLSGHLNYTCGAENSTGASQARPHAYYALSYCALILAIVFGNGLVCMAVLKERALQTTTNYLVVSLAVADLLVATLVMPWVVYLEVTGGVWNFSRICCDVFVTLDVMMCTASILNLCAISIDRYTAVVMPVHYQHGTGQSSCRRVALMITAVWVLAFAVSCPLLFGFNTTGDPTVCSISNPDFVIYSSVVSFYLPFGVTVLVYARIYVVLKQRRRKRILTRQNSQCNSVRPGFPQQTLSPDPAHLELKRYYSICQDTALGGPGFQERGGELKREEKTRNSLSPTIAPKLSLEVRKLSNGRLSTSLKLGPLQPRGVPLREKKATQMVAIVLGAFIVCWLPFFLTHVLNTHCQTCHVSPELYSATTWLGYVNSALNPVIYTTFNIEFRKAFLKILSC
- EXPERIMENTAL_DETAILS: Inhibition of the binding of [3H]Spiperone to human D3 receptors
- PROTOCOL_CONDITIONS: 100 nM; [3H]Spiperone 0.3 nM, membranes of CHO-cells; read-out: D3-bind. % inhibition of binding at 100 nM
Numbers only, in %.

Example entries and their recorded answers appear below.
molecule="O=C(CCN1CCN(c2cccc(Cl)c2Cl)CC1)N1CCc2ccccc2C1 [Compound 7d]" reported_measurement=85
molecule="O=C(CCCCN1CCN(c2cccc(Cl)c2Cl)CC1)N1CCc2cc(F)ccc21 [Compound 7c]" reported_measurement=92
molecule="O=C(CCCN1CCN(c2ccccc2F)CC1)N1CCc2ccccc2C1 [Compound 9k]" reported_measurement=92

Hi team, please reply with inhibition at 0.1 µM for each item in this list.
1. O=C(CCN1CCN(c2ccccc2Cl)CC1)N1CCc2ccccc2C1 [Compound 8k]
2. O=C(CCCN1CCN(c2cccc(Cl)c2Cl)CC1)N1CCc2ccccc2C1 [Compound 7e]

[73, 94]

---

- Tested on: alpha-1 receptors
- EXPERIMENTAL_DETAILS: Inhibition of binding of [3H]Prazosine to rat alpha-1 receptors
- PROTOCOL_CONDITIONS: 100 nM; [3H]Prazosine 0.25 nM, membranes from rat brain
We use 30% as the dividing line for Alpha-1 % inhibition of binding at 100 nM: on or above the line is 1.0, below is 0.0.

Past entries and their recorded results:
compound="O=C(CCN1CCN(c2ccccc2Cl)CC1)N1CCc2ccccc2C1 [Compound 8k]" qualitative_label=1.0
compound="O=C(CCCCN1CCN(c2cccc(Cl)c2Cl)CC1)N1CCc2cc(F)ccc21 [Compound 7c]" qualitative_label=1.0
compound="O=C(CCCN1CCN(c2ccccc2F)CC1)N1CCc2ccccc2C1 [Compound 9k]" qualitative_label=1.0
compound="O=C(CCN1CCN(c2cccc(Cl)c2Cl)CC1)N1CCc2cc(F)ccc21 [Compound 7a]" qualitative_label=1.0
compound="Clc1cccc(N2CCN(CCCCC3CCc4ccccc43)CC2)c1Cl (stereo not shown) [Compound 3]" qualitative_label=0.0

Does the compound O=C(CCCN1CCN(c2cccc(Cl)c2Cl)CC1)N1CCc2cc(F)ccc21 [Compound 7b] have recorded Alpha-1 % inhibition of binding at 100 nM that is 30% or more?
0.0

Does the compound O=C(CCCN1CCN(c2cccc(Cl)c2Cl)CC1)N1CCc2ccccc2C1 [Compound 7e] have recorded Alpha-1 % inhibition of binding at 100 nM that is 30% or more?
1.0

Does the compound O=C(CCN1CCN(c2cccc(Cl)c2Cl)CC1)N1CCc2ccccc2C1 [Compound 7d] have recorded Alpha-1 % inhibition of binding at 100 nM that is 30% or more?
1.0

Does the compound Clc1cccc(N2CCN(CCCCN3CCc4ccccc43)CC2)c1Cl [Compound 2b] have recorded Alpha-1 % inhibition of binding at 100 nM that is 30% or more?
0.0

Does the compound O=C(CCCN1CCN(c2ccccc2Cl)CC1)N1CCc2ccccc2C1 [Compound 8l] have recorded Alpha-1 % inhibition of binding at 100 nM that is 30% or more?
1.0

---

- SYSTEM_UNDER_TEST: human cloned dopamine D3 receptors (Homo sapiens, UniProt P35462)
pIC50: −log10 of the molar value.
We use 8 as the dividing line for pIC50: on or above the line is yes, below is no.

structure_notation=Clc1cccc(N2CCN(CCCc3c[nH]c4ccccc34)CC2)c1Cl system_under_test="human cloned dopamine D3 receptors (Homo sapiens, UniProt P35462)" qualitative_label=yes

Does the compound O=C(CCCN1CCN(c2cccc(Cl)c2Cl)CC1)N1CCc2ccccc21 have recorded pIC50 that is 8 or more?
yes

Does the compound Clc1cccc(N2CCN(CCCCCN3CCc4ccccc43)CC2)c1Cl have recorded pIC50 that is 8 or more?
no

Does the compound Clc1ccc2c(SCCN3CCN(c4cccc(Cl)c4Cl)CC3)c[nH]c2c1 have recorded pIC50 that is 8 or more?
no

Does the compound Clc1cccc(N2CCN(CCCN3CCc4ccccc43)CC2)c1Cl have recorded pIC50 that is 8 or more?
no

Does the compound Clc1ccccc1N1CCN(CCCCN2CCc3ccccc32)CC1 have recorded pIC50 that is 8 or more?
yes

Does the compound O=C1CCc2ccccc2N1CCCCN1CCN(c2cccc(Cl)c2Cl)CC1 have recorded pIC50 that is 8 or more?
yes

Does the compound O=C(CCCN1CCN(c2ccccc2Cl)CC1)N1CCc2ccccc21 have recorded pIC50 that is 8 or more?
no
